Cited source for all entries: patent US8049013B2

biological target: human MCHR1 (Homo sapiens, UniProt Q99705)
Sequence (Q99705 whole entry): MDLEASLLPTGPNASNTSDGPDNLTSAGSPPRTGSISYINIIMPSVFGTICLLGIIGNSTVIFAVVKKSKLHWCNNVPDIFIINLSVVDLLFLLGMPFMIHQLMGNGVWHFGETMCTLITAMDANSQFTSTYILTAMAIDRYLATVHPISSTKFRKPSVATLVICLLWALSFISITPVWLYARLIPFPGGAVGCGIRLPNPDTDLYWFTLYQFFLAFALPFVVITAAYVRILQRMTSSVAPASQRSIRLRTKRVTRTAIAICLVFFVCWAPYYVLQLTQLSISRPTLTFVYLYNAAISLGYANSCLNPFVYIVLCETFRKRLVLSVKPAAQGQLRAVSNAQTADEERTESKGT
pKi: −log10 of the molar value. Structures can show the parent of a compound that is named as a salt.
readout.kind: pKi

[in] Reported pKi for COc1cc(N2CCc3nc(-c4ccc(Cl)cc4)sc3C2=O)ccc1OC1CN(C2CC2)C1 [Example 37, hydrochloride salt] : what is it?
[out] ~8.40
